FYI, the data here is from PubChem BioAssay (NCATS).

- Tested on: CP286
- protocol.description: qHTS profiling for inhibitors of Plasmodium falciparum proliferation (AID 504749); note: nearly all actives have a fitted effect of over 60% in size
- assay.setup: P. falciparum in erythrocytes, SYBR Green DNA, 72 h; series mostly up to 28.7 µM
Inconclusive results are not listed. Activity calls are given as the source filed them. Calls come from the whole dose curve; as a rule, active = well fitted inhibition curve with a large enough effect; inconclusive = small, poorly fitted or top-dose-only effect; inactive = flat fitted curve, though single readings scatter.
Labels: active, inactive

{"compound": "C=CC(C)(O)CC/C=C(\\C)CCC=C(C)C (configuration not stated)", "target.or.system": "CP286", "answer.label": "inactive"}
{"compound": "COC(=O)[C@@H](N)CS", "target.or.system": "CP286", "answer.label": "inactive"}
{"compound": "CCOC(=S)SSC(=S)OCC", "target.or.system": "CP286", "answer.label": "inactive"}
{"compound": "COc1ccccc1N1CCN(CCCC(=O)c2ccc(F)cc2)CC1", "target.or.system": "CP286", "answer.label": "inactive"}
{"compound": "OCCCNc1ccccc1", "target.or.system": "CP286", "answer.label": "inactive"}
{"compound": "CCCCC(CC)CCC(CC(C)C)OS(=O)(=O)O (configuration not stated)", "target.or.system": "CP286", "answer.label": "inactive"}
{"compound": "NC(N)=O", "target.or.system": "CP286", "answer.label": "inactive"}
{"compound": "C[C@]12CC[C@@H]3c4ccc(OC(=O)c5ccccc5)cc4CC[C@H]3[C@@H]1CC[C@@H]2O", "target.or.system": "CP286", "answer.label": "active"}
{"compound": "CCCCCCCCCCCCCC(=O)OCC(COP(=O)([O-])OCC[N+](C)(C)C)OC(=O)CCCCCCCCCCCCC (configuration not stated)", "target.or.system": "CP286", "answer.label": "inactive"}
{"compound": "CCN(CC)CCOC(=O)c1cccnc1", "target.or.system": "CP286", "answer.label": "inactive"}
{"compound": "Nc1ncnc2c1ncn2[C@H]1CC[C@@H](CO)O1", "target.or.system": "CP286", "answer.label": "inactive"}
{"compound": "O=C(CCCCCCCCCCCCC1CCCC1)Nc1ccc(S(=O)(=O)c2ccc(NC(=O)CCCCCCCCCCCCC3CCCC3)cc2)cc1", "target.or.system": "CP286", "answer.label": "inactive"}

###

# Lookup of reported remaining proliferation (% of control), lower = more inhibition keyed by entry
- protocol.description: qHTS profiling for inhibitors of Plasmodium falciparum (HB3) proliferation (AID 743324);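 note: 100% = DMSO vehicle wells and 0% = artemisinin-treated control wells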
- assay.setup: Plasmodium falciparum HB3 blood-stage proliferation; at 28.7 µM (top of the series) unless noted
quantity: remaining proliferation (% of control), lower = more inhibition

{"smiles.repr": "Cc1c(N)nc([C@H](CC(N)=O)NC[C@H](N)C(N)=O)nc1C(=O)N[C@H](C(=O)N[C@H](C)[C@@H](O)[C@H](C)C(=O)N[C@H](C(=O)NCCc1nc(-c2nc(C(=O)NCCCCN=C(N)N)cs2)cs1)[C@@H](C)O)[C@@H](O[C@@H]1O[C@@H](CO)[C@@H](O)[C@H](O)[C@@H]1O[C@H]1O[C@H](CO)[C@@H](O)[C@H](OC(N)=O)[C@@H]1O)c1cnc[nH]1", "recorded.value": "67.1%"}
{"smiles.repr": "C#C[C@]1(O)CC[C@@H]2[C@H]3CCC4=CC(=O)CC[C@H]4[C@H]3C(=C)C[C@@]21CC", "recorded.value": "25.2%"}
{"smiles.repr": "CCN(CC)C(=S)S", "recorded.value": "84.6%"}
{"smiles.repr": "C=Cc1c(C)c2cc3nc(cc4[nH]c(cc5nc(cc1[nH]2)C(C)=C5CCC(=O)OC)c(CCC(=O)O)c4C)[C@@]1(C)C3=CC=C(C(=O)OC)[C@H]1C(=O)OC", "recorded.value": "0.279% [at 9.63 µM]"}
{"smiles.repr": "CO[C@H]1O[C@@H]2O[C@@]3(C)CC[C@H]4[C@H](C)CC[C@@H]([C@H]1C)[C@@]24OO3", "recorded.value": "0.0422% [at 57.5 µM]"}

###

- protocol.description: Drug repurposing screens with cells derived from glioblastoma tumor samples (AID 1345199); note: % is set by controls: 0 for no effect and ±100 for the full control effect; nearly all actives have a fitted effect of over 40% in size
- assay.setup: GBM patient neurospheres viability, ATP luminescence, 48 h; at 45.9 µM (top of the series); tumour line B
Inconclusive results are not listed.
Label 1 when activity, negative = cell killing is strictly below -10%; otherwise label -1.

{"compound": "CC(CNC(=O)c1cccnc1)NC(=O)c1cccnc1 (stereo not given)", "answer.label": 1}
{"compound": "CCCCCCCCCCCCCC(=O)OCC(COP(=O)([O-])OCC[N+](C)(C)C)OC(=O)CCCCCCCCCCCCC (stereo not given)", "answer.label": -1}
{"compound": "CC/C=C\\C/C=C\\C/C=C\\C/C=C\\C/C=C\\CCCC(=O)O", "answer.label": -1}
{"compound": "CC(C)(C)NCC(O)c1ccc(O)c(CO)n1 (stereo not given)", "answer.label": -1}
{"compound": "CO[C@H]1O[C@@H]2O[C@@]3(C)CC[C@H]4[C@H](C)CC[C@@H]([C@H]1C)[C@@]24OO3", "answer.label": 1}

###

- Tested on: P93_24
- protocol.description: qHTS profiling for inhibitors of Plasmodium falciparum proliferation (AID 504749); note: nearly all actives have a fitted effect of over 60% in size
- assay.setup: P. falciparum in erythrocytes, SYBR Green DNA, 72 h; series mostly up to 28.7 µM
Records with an inconclusive call do not appear. The source made the active and inactive calls. The call rests on the fitted dose curve; in most records, active means well fitted inhibition curve with a large enough effect; inconclusive means small, poorly fitted or top-dose-only effect; inactive means flat fitted curve, though single readings scatter.
Classes used: True for active, False for inactive

{"compound": "Cc1cccc(Nc2ncccc2C(=O)O)c1C", "answer.label": "False"}
{"compound": "COC1=C(OC)C(=O)C(C/C=C(\\C)CC/C=C(\\C)CC/C=C(\\C)CC/C=C(\\C)CC/C=C(\\C)CC/C=C(\\C)CC/C=C(\\C)CC/C=C(\\C)CC/C=C(\\C)CCC=C(C)C)=C(C)C1=O", "answer.label": "False"}
{"compound": "CCc1ccc(S(=O)(=O)O)cc1", "answer.label": "False"}
{"compound": "FC(F)OC(Cl)C(F)(F)F (stereo not given)", "answer.label": "False"}
{"compound": "FCOC(C(F)(F)F)C(F)(F)F", "answer.label": "False"}
{"compound": "COC(=O)CCC[N+](C)(C)C", "answer.label": "False"}
{"compound": "C[C@]12CCC(=O)C[C@@H]1CC[C@@H]1[C@@H]2CC[C@]2(C)C=CC[C@@H]12", "answer.label": "False"}
{"compound": "CCc1ncnc2cc(OC)c(OC)cc12", "answer.label": "False"}
{"compound": "Cc1ccccn1", "answer.label": "False"}
{"compound": "CCOC(=O)c1c[nH]c2cc(OCC(C)C)c(OCC(C)C)cc2c1=O", "answer.label": "True"}
{"compound": "CC(=O)Oc1cccc2c1C(=O)c1c(OC(C)=O)cc(C(=O)O)cc1C2=O", "answer.label": "False"}
{"compound": "COc1ccc2c(c1)OC(C)(C)C(c1ccccc1)C2c1ccc(OCCN2CCCC2)cc1 (stereo not given)", "answer.label": "True"}
{"compound": "CNC(=O)c1c(I)c(C(=O)NCC(=O)Nc2c(I)c(C(=O)O)c(I)c(C(=O)NCCO)c2I)c(I)c(N(C)C(C)=O)c1I", "answer.label": "False"}
{"compound": "CSc1nc2cc(Oc3cccc(Cl)c3Cl)c(Cl)cc2[nH]1", "answer.label": "True"}
{"compound": "CC(CCc1ccc(O)cc1)NCC(O)c1ccc(O)cc1 (stereo not given)", "answer.label": "False"}
{"compound": "CN1C(C(=O)Nc2ccccn2)C(=O)c2sc(Cl)cc2S1(=O)=O (stereo not given)", "answer.label": "False"}
{"compound": "CC/C=C\\C/C=C\\C/C=C\\C/C=C\\C/C=C\\CCCC(=O)O", "answer.label": "False"}
{"compound": "CC(C)=CCC/C(C)=C/CC/C(C)=C/CC/C=C(\\C)CC/C=C(\\C)CCC=C(C)C", "answer.label": "False"}
{"compound": "FC(F)(F)C(F)(F)C(F)(F)C(F)(F)C(F)(F)C(F)(F)F", "answer.label": "False"}
{"compound": "CN1CCc2c(c3ccccc3n2Cc2ccccc2)C1", "answer.label": "False"}
{"compound": "CCCC(=O)O", "answer.label": "False"}
{"compound": "C[C@H](N)C(=O)N[C@@H](C)P(=O)(O)O", "answer.label": "False"}
{"compound": "CN1C(=O)C[C@@H](C(=O)N[C@@H](Cc2cnc[nH]2)C(=O)N2CCC[C@H]2C(N)=O)NC1=O", "answer.label": "False"}
{"compound": "CCCCCCCCCCCCCCCCCCCCCC(=O)Nc1ccn([C@@H]2O[C@H](CO)[C@@H](O)[C@@H]2O)c(=O)n1", "answer.label": "False"}
{"compound": "O=C(O)c1cc(N=Nc2ccc(O)c(C(=O)O)c2)ccc1O", "answer.label": "False"}
